Recorded inhibition at 1 µM values for a group of molecules are listed next.
- tgt: ABHD6 (Mus musculus (Mouse))
- assayProcedure: In vitro competitive activity-based protein profiling (mouse brain membrane fraction or cell lysates), ABHD6 band
- Assay type: biochemical
- details: 1 μM, mouse proteome; read-out: ABHD6 % Inh 1 μM (mouse)

Previously resolved entries follow.
>  <molecule>
O=C(O)C1COCCN1c1cc(CN2CCCC23CCN(C(=O)OC(C(F)(F)F)C(F)(F)F)CC3)cc(C(F)(F)F)c1 (centres unmarked)

>  <measuredValue>
< 25%

$$$$
>  <molecule>
O=C(OC(C(F)(F)F)C(F)(F)F)N1CCC2(CCN(Cc3ccc(Cl)c(N4CCCC4)c3)C2)CC1

>  <measuredValue>
≥ 75%

$$$$
>  <molecule>
O=C(OC(C(F)(F)F)C(F)(F)F)N1CCC2(CCN(Cc3ccc(Cl)c(N4CCOCC4)c3)C2)CC1

>  <measuredValue>
≥ 75%

$$$$
>  <molecule>
CS(=O)(=O)N1CCN(c2cc(Cl)ccc2CN2CCCC23CCN(C(=O)OC(C(F)(F)F)C(F)(F)F)CC3)CC1

>  <measuredValue>
< 25%

$$$$
>  <molecule>
O=C(OC(C(F)(F)F)C(F)(F)F)N1CCC2(CCCN2Cc2cc(-c3nnn[nH]3)cc(C(F)(F)F)c2)CC1

>  <measuredValue>
25 to 75%

$$$$
>  <molecule>
O=C(OC(C(F)(F)F)C(F)(F)F)N1CCC2(CCCN2Cc2ccc(Cl)cc2N2CCCC2)CC1

>  <measuredValue>
< 25%

$$$$
>  <molecule>
O=C(OC(C(F)(F)F)C(F)(F)F)N1CCC2(CCCN2Cc2ccc(C(F)(F)F)c(N3CCCC3)c2)CC1

>  <measuredValue>
< 25%

$$$$

Then this molecule:
Req: For the molecule O=C(O)C1CCN(c2cc(C(F)(F)F)ccc2CN2CCC3(CCN(C(=O)OC(C(F)(F)F)C(F)(F)F)CC3)C2)CC1 , give its reported inhibition at 1 µM.
Resp: ≥ 75%

---

Recorded IC50 values for a group of compounds are listed next.
- tgt: ABHD6 (Mus musculus (Mouse), UniProt Q8R2Y0)
- Sequence (Q8R2Y0 whole entry): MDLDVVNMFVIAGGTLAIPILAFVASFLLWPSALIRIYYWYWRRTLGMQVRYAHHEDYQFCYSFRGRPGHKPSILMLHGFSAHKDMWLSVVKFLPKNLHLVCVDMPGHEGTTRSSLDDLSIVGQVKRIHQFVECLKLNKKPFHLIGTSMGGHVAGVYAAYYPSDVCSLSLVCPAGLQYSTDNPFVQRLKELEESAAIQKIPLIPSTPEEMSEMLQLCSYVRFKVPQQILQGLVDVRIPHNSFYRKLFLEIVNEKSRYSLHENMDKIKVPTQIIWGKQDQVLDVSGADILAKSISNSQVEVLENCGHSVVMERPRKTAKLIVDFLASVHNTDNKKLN
- assayProcedure: In vitro competitive activity-based protein profiling (mouse brain membrane fraction or cell lysates), ABHD6 band
- Type: biochemical
- details: mouse proteome, competitive ABPP

>  <compound>
O=C(OC(C(F)(F)F)C(F)(F)F)N1CCC2(CCN(Cc3ccc(N4CCCC4)c(C(F)(F)F)c3)C2)CC1 [Example 141]

>  <IC50>
100 to 1000 nM

$$$$
>  <compound>
O=C(OC(C(F)(F)F)C(F)(F)F)N1CCC2(CCCN2Cc2cc(Oc3nc4ccccc4s3)cc(C(F)(F)F)c2)CC1 [Example 172]

>  <IC50>
> 1000 nM

$$$$

Req: Report value only: IC50, ABHD6 (Mus musculus (Mouse), UniProt Q8R2Y0), COc1ccc(CN2CCCC23CCN(C(=O)OC(C(F)(F)F)C(F)(F)F)CC3)cc1 [Example 1]
Resp: > 1000 nM

---

- tgt: ABHD6 (Mus musculus (Mouse), UniProt Q8R2Y0)
- assayProcedure: In vitro competitive activity-based protein profiling (mouse brain membrane fraction or cell lysates), ABHD6 band
- Type: biochemical
- details: 1 μM, mouse proteome; read-out: ABHD6 % Inh 1 μM (mouse)
observationType: inhibition at 1 µM

Previously resolved entries follow.
>  <smilesString>
CS(=O)(=O)N1CCc2cccc(CN3CCCC34CCN(C(=O)OC(C(F)(F)F)C(F)(F)F)CC4)c2C1

>  <measuredValue>
25 to 75%

$$$$
>  <smilesString>
O=C(OC(C(F)(F)F)C(F)(F)F)N1CCC2(CCN(Cc3cccc4c3CN(C3CC3)CC4)C2)CC1

>  <measuredValue>
25 to 75%

$$$$
>  <smilesString>
CN1CCN(c2c(Cl)cccc2CN2CC3(CCN(C(=O)OC(C(F)(F)F)C(F)(F)F)CC3)CC2(C)C)CC1

>  <measuredValue>
25 to 75%

$$$$

Req: For the compound O=C(OC(C(F)(F)F)C(F)(F)F)N1CCC2(CCCN2Cc2cccc(N3C4CCC3COC4)c2Cl)CC1 , give its reported inhibition at 1 µM.
Resp: < 25%

Req: For the compound CS(=O)(=O)N1CCN(c2cc(CN3CCCC34CCN(C(=O)OC(C(F)(F)F)C(F)(F)F)CC4)cc(C(F)(F)F)c2)CC1 , give its reported inhibition at 1 µM.
Resp: < 25%

---

Recorded inhibition at 1 µM values for a group of compounds are listed next.
- tgt: ABHD6 (Mus musculus (Mouse))
- assayProcedure: In vitro competitive activity-based protein profiling (mouse brain membrane fraction or cell lysates), ABHD6 band
- Format: biochemical
- details: 1 μM, mouse proteome; read-out: ABHD6 % Inh 1 μM (mouse)

Previously resolved entries follow.
>  <compound>
O=C(OC(C(F)(F)F)C(F)(F)F)N1CCC2(CCCN2Cc2cccc(N3CCC(F)CC3)c2Cl)CC1

>  <observationType>
inhibition at 1 µM

>  <measuredValue>
< 25%

$$$$
>  <compound>
O=C(O)[C@H]1CCCN(c2cc(C(F)(F)F)ccc2CN2CCC3(CCN(C(=O)OC(C(F)(F)F)C(F)(F)F)CC3)C2)C1

>  <observationType>
inhibition at 1 µM

>  <measuredValue>
≥ 75%

$$$$
>  <compound>
O=C(O)[C@@H]1CCCN(c2cc(CN3CCC4(CCN(C(=O)OC(C(F)(F)F)C(F)(F)F)CC4)C3)cc(C(F)(F)F)c2)C1

>  <observationType>
inhibition at 1 µM

>  <measuredValue>
≥ 75%

$$$$
>  <compound>
O=C(O)C1CCN(Cc2cc(Cl)cc(CN3CCCC34CCN(C(=O)OC(C(F)(F)F)C(F)(F)F)CC4)c2)CC1

>  <observationType>
inhibition at 1 µM

>  <measuredValue>
< 25%

$$$$

Req: For the compound O=C(OC(C(F)(F)F)C(F)(F)F)N1CCC2(CCCN2Cc2ccc(C(F)(F)F)cc2N2CC3COCC3C2)CC1 (stereo not drawn) , give its reported inhibition at 1 µM.
Resp: < 25%

Req: For the compound O=C(OC(C(F)(F)F)C(F)(F)F)N1CCC2(CCN(Cc3ccc(Cl)cc3N3CC4COCC4C3)C2)CC1 (stereo not drawn) , give its reported inhibition at 1 µM.
Resp: ≥ 75%

---

- tgt: ABHD6 (Mus musculus (Mouse), UniProt Q8R2Y0)
- assayProcedure: In vitro competitive activity-based protein profiling (mouse brain membrane fraction or cell lysates), ABHD6 band
- Assay type: biochemical
- details: mouse proteome, competitive ABPP
- Method: In Vitro Competitive Activity-Based Protein Profiling. Proteomes (mouse brain membrane fraction or cell lysates) (50 μL, 1.0 mg/mL total protein concentration) were preincubated with varying concentrations of inhibitors at 37° C. […] Following gel imaging, serine hydrolase activity was determined by measuring fluorescent intensity of gel bands corresponding to MAGL, ABHD6 and FAAH using ImageJ 1.43u software.
Recorded IC50 values for a group of compounds are listed next.

Previously resolved entries follow.
>  <compound>
O=C(OC(C(F)(F)F)C(F)(F)F)N1CCC2(CCN(Cc3ccc(Cl)cc3N3CCCCC3)C2)CC1 [Example 24]

>  <measuredValue>
> 1000 nM

$$$$
>  <compound>
O=C(OC(C(F)(F)F)C(F)(F)F)N1CCC2(CCCN2Cc2cccc(OCCF)c2)CC1 [Example 27]

>  <measuredValue>
> 1000 nM

$$$$
>  <compound>
O=C(OC(C(F)(F)F)C(F)(F)F)N1CCC2(CCCN2Cc2ccc(Cl)c(OCCF)c2)CC1 [Example 28]

>  <measuredValue>
> 1000 nM

$$$$

Then this compound:
Req: For the compound CN1CCN(c2c(Cl)cccc2CN2CC3(CCN(C(=O)OC(C(F)(F)F)C(F)(F)F)CC3)CC2(C)C)CC1 [Example 189] , give its reported IC50.
Resp: 100 to 1000 nM

---

Recorded IC50 values for a group of molecules are listed next.
- tgt: ABHD6 (Mus musculus (Mouse), UniProt Q8R2Y0)
- assayProcedure: In vitro competitive activity-based protein profiling (mouse brain membrane fraction or cell lysates), ABHD6 band
- Type: biochemical
- details: mouse proteome, competitive ABPP
- Method: In Vitro Competitive Activity-Based Protein Profiling. Proteomes (mouse brain membrane fraction or cell lysates) (50 μL, 1.0 mg/mL total protein concentration) were preincubated with varying concentrations of inhibitors at 37° C. […] Following gel imaging, serine hydrolase activity was determined by measuring fluorescent intensity of gel bands corresponding to MAGL, ABHD6 and FAAH using ImageJ 1.43u software.

Previously resolved entries follow.
>  <smilesString>
Cc1cc(CN2CCC3(CCN(C(=O)OC(C(F)(F)F)C(F)(F)F)CC3)C2)ccc1Cl

>  <observationType>
IC50

>  <measuredValue>
100 to 1000 nM

$$$$
>  <smilesString>
CC(C)CN1CCc2cccc(CN3CCCC34CCN(C(=O)OC(C(F)(F)F)C(F)(F)F)CC4)c2C1

>  <observationType>
IC50

>  <measuredValue>
> 1000 nM

$$$$

Req: For the molecule COc1ccccc1CN1CCCC12CCN(C(=O)OC(C(F)(F)F)C(F)(F)F)CC2 , give its reported IC50.
Resp: > 1000 nM

Req: For the molecule Cc1ccc(CN2CCCC23CCN(C(=O)OC(C(F)(F)F)C(F)(F)F)CC3)cc1Cl , give its reported IC50.
Resp: > 1000 nM

Provenance of the data: patent US10030020B2
